Recorded values, source PubChem BioAssay AID2060484.

System: SUM149PT spheroids with HUVEC/MSC, viability
Assay: Anticancer human tumor SUM149PT cell line growth inhibition [GQUAD]
Details: second compound 0.1 µM; first compound 3.16 µM; active compounds read low
Doc: threshold 20% (exclusive). Items with viability, T/C beneath it return Yes; others return No.

COMPOUND	CLASS_LABEL
CC(C)n1c(=O)n(C)c2cnc3cc(F)c(-c4ccc(OCCCN5CCCCC5)nc4)cc3c21 + CN(C)c1ccc(Nc2c3ccc(NC(=O)CCN4CCCC4)cc3nc3cc(NC(=O)CCN4CCCC4)ccc23)cc1	No
CC1COCCN1c1cc(C2(O)CC3CCC(C2)O3)c2cnn(-c3ccn[nH]3)c2n1 (stereo not given) + Cc1cnc(CNC(=O)c2c(=O)c3ccc(N4CCCN(C)CC4)nc3n3c2sc2ccccc23)cn1	Yes
CC(C)(O)C1CCC(Nc2ccc3ncc(-c4cccc(C(F)(F)F)c4)n3n2)CC1 (stereo not given) + Cc1cnc(CNC(=O)c2c(=O)c3ccc(N4CCCN(C)CC4)nc3n3c2sc2ccccc23)cn1	No
C#Cc1c(F)ccc2cc(O)cc(-c3ncc4c(N5CC6CCC(C5)N6)nc(OCC56CCCN5CC(F)C6)nc4c3F)c12 (stereo not given) + Cc1cnc(CNC(=O)c2c(=O)c3ccc(N4CCCN(C)CC4)nc3n3c2sc2ccccc23)cn1	No
C=CCn1c(=O)c2cnc(Nc3ccc(N4CCN(C)CC4)cc3)nc2n1-c1cccc(C(C)(C)O)n1 + CN(C)c1ccc(Nc2c3ccc(NC(=O)CCN4CCCC4)cc3nc3cc(NC(=O)CCN4CCCC4)ccc23)cc1	Yes

Qu. Is the reported viability, T/C for COc1ccc([C@@H](O)c2cc(-c3ncnc4cc(N5CCOCC5)ccc34)c(F)cc2Cl)nn1 + Cc1cnc(CNC(=O)c2c(=O)c3ccc(N4CCCN(C)CC4)nc3n3c2sc2ccccc23)cn1 strictly below 20%?
Ans. No

---

Test system: SUM149PT spheroids with HUVEC/MSC, viability
Assay: Anticancer human tumor SUM149PT cell line growth inhibition [GQUAD]
Conditions: second compound 1 µM; first compound 1 µM; active compounds read low
// returns N unless viability, T/C is strictly below 50%, in which case Y

COMPOUND	CLASS_LABEL
COc1cccc2c1C(=O)c1c(O)c3c(c(O)c1C2=O)CC(O)(C(=O)CO)CC3OC1CC(N)C(O)C(C)O1 (stereo not given) + CN(C)c1ccc(Nc2c3ccc(NC(=O)CCN4CCCC4)cc3nc3cc(NC(=O)CCN4CCCC4)ccc23)cc1	Y

Qu. Confirm or reject: viability, T/C of O=c1[nH]cc(F)c(=O)[nH]1 + CN(C)c1ccc(Nc2c3ccc(NC(=O)CCN4CCCC4)cc3nc3cc(NC(=O)CCN4CCCC4)ccc23)cc1 lies strictly below 50%
Ans. N

Qu. For C=CC(=O)N1CCN(c2nc(=O)n(-c3c(C)ccnc3C(C)C)c3nc(-c4c(O)cccc4F)c(F)cc23)C(C)C1 (stereo not given) + Cc1cnc(CNC(=O)c2c(=O)c3ccc(N4CCCN(C)CC4)nc3n3c2sc2ccccc23)cn1 then?
Ans. N

Qu. // query: CC1COCCN1c1cc(C2(O)CC3CCC(C2)O3)c2cnn(-c3ccn[nH]3)c2n1 (stereo not given) + Cc1cnc(CNC(=O)c2c(=O)c3ccc(N4CCCN(C)CC4)nc3n3c2sc2ccccc23)cn1
Ans. Y

---

System: SUM149PT spheroids with HUVEC/MSC, viability
Test: Anticancer human tumor SUM149PT cell line growth inhibition [GQUAD];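 note: spheroids exposed to drugs for seven days before readout; percent viability relative to DMSO vehicle control taken as 100%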
Conditions: second compound 1 µM; first compound 3.16 µM; active compounds read low
ENDPOINT: viability, T/C (%)
Provide the reading as a plain figure in %.

Example entries begin here.
MOLECULE	SYSTEM	UNIT_TAG	VALUE_REPORTED
O=c1[nH]cc(F)c(=O)[nH]1 + CN(C)c1ccc(Nc2c3ccc(NC(=O)CCN4CCCC4)cc3nc3cc(NC(=O)CCN4CCCC4)ccc23)cc1	SUM149PT spheroids with HUVEC/MSC, viability	%	68.8
C=CC(=O)N1CCN(c2nc(=O)n(-c3c(C)ccnc3C(C)C)c3nc(-c4c(O)cccc4F)c(F)cc23)C(C)C1 (stereo unspecified) + Cc1[nH]c2ccc(F)cc2c1-c1nc2c3cccnc3c3ncccc3c2[nH]1	SUM149PT spheroids with HUVEC/MSC, viability	%	120
COc1ccc([C@@H](O)c2cc(-c3ncnc4cc(N5CCOCC5)ccc34)c(F)cc2Cl)nn1 + Cc1cnc(CNC(=O)c2c(=O)c3ccc(N4CCCN(C)CC4)nc3n3c2sc2ccccc23)cn1	SUM149PT spheroids with HUVEC/MSC, viability	%	19.6
COc1ncnc(C2CC2)c1-c1ncc2cnn(Cc3ccc(-c4nc(C(F)(F)F)cn4C(C)C)cc3)c2n1 + Cc1[nH]c2ccc(F)cc2c1-c1nc2c3cccnc3c3ncccc3c2[nH]1	SUM149PT spheroids with HUVEC/MSC, viability	%	90.1
CC(C)(O)C1CCC(Nc2ccc3ncc(-c4cccc(C(F)(F)F)c4)n3n2)CC1 (stereo unspecified) + Cc1[nH]c2ccc(F)cc2c1-c1nc2c3cccnc3c3ncccc3c2[nH]1	SUM149PT spheroids with HUVEC/MSC, viability	%	47.4

Qu. Suppose we examine the molecule Cc1cccc(N(C)C(=O)C2C(O)CCN2c2nc(C)cc(C(F)(F)F)c2C#N)c1 (stereo unspecified) + Cc1cnc(CNC(=O)c2c(=O)c3ccc(N4CCCN(C)CC4)nc3n3c2sc2ccccc23)cn1 ; what viability, T/C value has been reported?
Ans. 49.6

---

Recorded viability, T/C by entry
Tested on: SUM149PT spheroids with HUVEC/MSC, viability
Test: Anticancer human tumor SUM149PT cell line growth inhibition [GQUAD];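 note: spheroids exposed to drugs for seven days before readout; percent viability relative to DMSO vehicle control taken as 100%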
Conditions: second compound 0.0316 µM; first compound 3.16 µM; active compounds read low
Note: unit % is implicit; provide only the numeric part.

See these solved cases before continuing.
COMPOUND	viability, T/C [%]
C=CCn1c(=O)c2cnc(Nc3ccc(N4CCN(C)CC4)cc3)nc2n1-c1cccc(C(C)(C)O)n1 + Cc1cnc(CNC(=O)c2c(=O)c3ccc(N4CCCN(C)CC4)nc3n3c2sc2ccccc23)cn1	9.59
CC(C)n1c(=O)n(C)c2cnc3cc(F)c(-c4ccc(OCCCN5CCCCC5)nc4)cc3c21 + CN(C)c1ccc(Nc2c3ccc(NC(=O)CCN4CCCC4)cc3nc3cc(NC(=O)CCN4CCCC4)ccc23)cc1	95.8
CC1COCCN1c1cc(C2(S(C)(=N)=O)CC2)nc(-c2ccnc3[nH]ccc23)n1 (stereo not given) + Cc1[nH]c2ccc(F)cc2c1-c1nc2c3cccnc3c3ncccc3c2[nH]1	40.5
CC(C)(O)C1CCC(Nc2ccc3ncc(-c4cccc(C(F)(F)F)c4)n3n2)CC1 (stereo not given) + Cc1[nH]c2ccc(F)cc2c1-c1nc2c3cccnc3c3ncccc3c2[nH]1	44.6

Qu. Quick one: viability, T/C of O=C(c1cc(Cc2n[nH]c(=O)c3ccccc23)ccc1F)N1CCN(C(=O)C2CC2)CC1 + Cc1cnc(CNC(=O)c2c(=O)c3ccc(N4CCCN(C)CC4)nc3n3c2sc2ccccc23)cn1 ?
Ans. 80.2

---

Test system: SUM149PT spheroids with HUVEC/MSC, viability
Assay: Anticancer human tumor SUM149PT cell line growth inhibition [GQUAD];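 note: spheroids exposed to drugs for seven days before readout; percent viability relative to DMSO vehicle control taken as 100%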
Details: second compound 1 µM; first compound 1 µM; active compounds read low
Recorded viability, T/C values for a group of compounds are listed next.
Report as a plain number; the unit % is understood.

COMPOUND	ENDPOINT	VALUE_REPORTED
CC1COCCN1c1cc(-c2ccnn2C)c2ccnc(-c3ccn[nH]3)c2n1 (stereo not drawn) + Cc1[nH]c2ccc(F)cc2c1-c1nc2c3cccnc3c3ncccc3c2[nH]1	viability, T/C	26.4
C=CC(=O)N1CCN(c2nc(=O)n(-c3c(C)ccnc3C(C)C)c3nc(-c4c(O)cccc4F)c(F)cc23)C(C)C1 (stereo not drawn) + Cc1[nH]c2ccc(F)cc2c1-c1nc2c3cccnc3c3ncccc3c2[nH]1	viability, T/C	118

Please look at the following compound next.
Qu. // viability, T/C lookup, key: COc1ccc([C@@H](O)c2cc(-c3ncnc4cc(N5CCOCC5)ccc34)c(F)cc2Cl)nn1 + Cc1[nH]c2ccc(F)cc2c1-c1nc2c3cccnc3c3ncccc3c2[nH]1
Ans. 52.4

---

Tested on: SUM149PT spheroids with HUVEC/MSC, viability
Test: Anticancer human tumor SUM149PT cell line growth inhibition [GQUAD]; active = viability on the fitted dose curve at most 10% of control; inactive = the rest;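 note: spheroids exposed to drugs for seven days before readout; percent viability relative to DMSO vehicle control taken as 100%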
Details: second compound 10 µM; first compound 10 µM
From the text: DNA G-quadruplex Stabilizer Agents in Combinations in Complex Spheroids A high-throughput screen of multi-cell type tumor spheroids was designed to identify active combinations of DNA G-quadruplex stabilizer agents and targeted small molecules. […] Compounds. […] If the clinical Cmax for an agent had not been determined, the highest concentration tested was 10 microM. […]
Select the matching outcome among y = active, n = inactive

COMPOUND	CLASS_LABEL
C=CCn1c(=O)c2cnc(Nc3ccc(N4CCN(C)CC4)cc3)nc2n1-c1cccc(C(C)(C)O)n1 + Cc1cnc(CNC(=O)c2c(=O)c3ccc(N4CCCN(C)CC4)nc3n3c2sc2ccccc23)cn1	y
CC1COCCN1c1cc(C2(S(C)(=N)=O)CC2)nc(-c2ccnc3[nH]ccc23)n1 (stereo not given) + CN(C)c1ccc(Nc2c3ccc(NC(=O)CCN4CCCC4)cc3nc3cc(NC(=O)CCN4CCCC4)ccc23)cc1	n
CC(=O)O[C@H]1C(=O)[C@@]2(C)[C@H]([C@H](OC(=O)c3ccccc3)[C@]3(O)C[C@H](OC(=O)[C@H](O)[C@@H](NC(=O)c4ccccc4)c4ccccc4)C(C)=C1C3(C)C)[C@]1(OC(C)=O)CO[C@@H]1C[C@@H]2O + Cc1cnc(CNC(=O)c2c(=O)c3ccc(N4CCCN(C)CC4)nc3n3c2sc2ccccc23)cn1	y
C#Cc1c(F)ccc2cc(O)cc(-c3ncc4c(N5CC6CCC(C5)N6)nc(OCC56CCCN5CC(F)C6)nc4c3F)c12 (stereo not given) + CN(C)c1ccc(Nc2c3ccc(NC(=O)CCN4CCCC4)cc3nc3cc(NC(=O)CCN4CCCC4)ccc23)cc1	n
COc1ncnc(C2CC2)c1-c1ncc2cnn(Cc3ccc(-c4nc(C(F)(F)F)cn4C(C)C)cc3)c2n1 + Cc1cnc(CNC(=O)c2c(=O)c3ccc(N4CCCN(C)CC4)nc3n3c2sc2ccccc23)cn1	y
C=CCn1c(=O)c2cnc(Nc3ccc(N4CCN(C)CC4)cc3)nc2n1-c1cccc(C(C)(C)O)n1 + Cc1[nH]c2ccc(F)cc2c1-c1nc2c3cccnc3c3ncccc3c2[nH]1	y
CC(C)(O)C1CCC(Nc2ccc3ncc(-c4cccc(C(F)(F)F)c4)n3n2)CC1 (stereo not given) + CN(C)c1ccc(Nc2c3ccc(NC(=O)CCN4CCCC4)cc3nc3cc(NC(=O)CCN4CCCC4)ccc23)cc1	n
O=C(NO)c1cnc(N2CCN(S(=O)(=O)c3ccc4ccccc4c3)CC2)nc1 + CN(C)c1ccc(Nc2c3ccc(NC(=O)CCN4CCCC4)cc3nc3cc(NC(=O)CCN4CCCC4)ccc23)cc1	y
CC1COCCN1c1cc(C2(S(C)(=N)=O)CC2)nc(-c2ccnc3[nH]ccc23)n1 (stereo not given) + Cc1cnc(CNC(=O)c2c(=O)c3ccc(N4CCCN(C)CC4)nc3n3c2sc2ccccc23)cn1	y

Attention now shifts to the item below.
Qu. Dear all, I need the recorded test outcome for CCCS(=O)(=O)Nc1ccc(F)c(C(=O)c2c[nH]c3ncc(-c4ccc(Cl)cc4)cc23)c1F + Cc1cnc(CNC(=O)c2c(=O)c3ccc(N4CCCN(C)CC4)nc3n3c2sc2ccccc23)cn1 , thank you.
Ans. y
